Here the recorded inhibition is given for each entry.
- TESTED TARGET: Serine/threonine-protein kinase PAK 6 (Homo sapiens)
- RUN PARAMETERS: at 0.1 µM
Only the number, expressed in %, is required.

Previously resolved entries follow.
MOLECULE: CN(c1ccc(NC(=O)Nc2c(Cl)cccc2Cl)cc1)c1ccnc(Nc2cccc(CS(C)(=O)=O)c2)n1
inhibition [%]: 7.14

MOLECULE: Cc1ccc(C(=O)NC2CCC2)cc1-c1ccc(C(=O)NCC2CC2)cc1
inhibition [%]: 3.05

MOLECULE: NC(=O)Cc1ccccc1Oc1nccc(-c2c(-c3ccc(F)cc3)ncn2C2CCNCC2)n1
inhibition [%]: 1.97

MOLECULE: N#Cc1ccc(Oc2nccc(-c3c(-c4ccc(F)cc4)ncn3C3CCNCC3)n2)cc1
inhibition [%]: -4.78

Request: inhibition of CCc1ccc(Oc2nccc(-c3c(-c4ccc(F)cc4)ncn3C3CCNCC3)n2)cc1 on Serine/threonine-protein kinase PAK 6 (Homo sapiens)?
Response: -5.49

Request: Lab request: please report inhibition under test system Serine/threonine-protein kinase PAK 6 (Homo sapiens) for NS(=O)(=O)c1ccc(N/N=C2\C(=O)Nc3ccc(C(=O)NCCCn4ccnc4)cc32)cc1
Response: -2.98

Request: State its inhibition on Serine/threonine-protein kinase PAK 6 (Homo sapiens): CCS(=O)(=O)c1ccc(OC)c(Nc2ncc(-c3ccccc3Cl)o2)c1
Response: -6.91

Request: inhibition, test system Serine/threonine-protein kinase PAK 6 (Homo sapiens), entry NC(=O)c1ccc(Oc2nccc(-c3c(-c4ccc(F)cc4)ncn3C3CCNCC3)n2)cc1
Response: -4.02

Request: Enter reported inhibition observed with Serine/threonine-protein kinase PAK 6 (Homo sapiens) for Fc1ccc(-c2ncn(C3CCNCC3)c2-c2ccnc(Oc3ccc(Oc4ccccc4)cc3)n2)cc1
Response: -6.7

Request: Checklist item: inhibition tested on Serine/threonine-protein kinase PAK 6 (Homo sapiens), entry COc1cc(Nc2ncc3c(C)nc(-c4cccc(Oc5ccccc5)c4)n3n2)cc(OC)c1OC , value?;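 also: mean PAK6 inhibition reported from the GSK PKIS screen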
Response: -2.06

Request: Field: inhibition (Serine/threonine-protein kinase PAK 6 (Homo sapiens)). Entry: COc1cc2ncn(-c3cc(OCc4cccs4)c(C(N)=O)s3)c2cc1OC
Response: 6.2

* * *

In this section, each of the compounds is paired with its reported inhibition.
- TESTED TARGET: Glycogen synthase kinase-3 beta (Homo sapiens) (UniProt P49841);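 also: reported values are mean percent inhibition of GSK3B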
- Sequence (P49841 whole entry, looked up): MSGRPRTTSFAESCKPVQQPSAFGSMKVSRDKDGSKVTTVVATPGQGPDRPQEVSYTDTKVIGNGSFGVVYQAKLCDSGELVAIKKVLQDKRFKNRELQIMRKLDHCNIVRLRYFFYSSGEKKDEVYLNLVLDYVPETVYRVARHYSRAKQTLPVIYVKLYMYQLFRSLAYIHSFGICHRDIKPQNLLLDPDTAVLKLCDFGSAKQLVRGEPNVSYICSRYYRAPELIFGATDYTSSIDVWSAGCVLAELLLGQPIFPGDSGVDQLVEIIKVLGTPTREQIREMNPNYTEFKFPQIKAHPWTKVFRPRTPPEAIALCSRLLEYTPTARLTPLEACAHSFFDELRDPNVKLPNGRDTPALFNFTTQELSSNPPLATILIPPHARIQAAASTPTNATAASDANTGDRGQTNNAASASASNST
- RUN PARAMETERS: at 1 µM
Record the value in %, omitting the unit from your answer.

COMPOUND: COc1ccc2ncn(-c3cc(O[C@H](C)c4ccccc4Cl)c(C(N)=O)s3)c2c1
VALUE TYPE: inhibition
NUMERIC RESULT: -0.28
//
COMPOUND: Clc1ccc(CNc2nccc(-c3cnn4ncccc34)n2)cc1
VALUE TYPE: inhibition
NUMERIC RESULT: 11.6
//
COMPOUND: CN(c1ccc(NC(=O)Nc2c(Cl)cccc2Cl)cc1)c1ccnc(Nc2cccc(CS(C)(=O)=O)c2)n1
VALUE TYPE: inhibition
NUMERIC RESULT: 9.63
//
COMPOUND: NS(=O)(=O)c1ccc(N/N=C2\C(=O)Nc3ccc(C(=O)NCCCn4ccnc4)cc32)cc1
VALUE TYPE: inhibition
NUMERIC RESULT: 77.7
//
COMPOUND: CN(C)CCOc1ccc(-c2cc(-c3ccc4c(c3)CCC4=NO)c(-c3ccncc3)o2)cc1
VALUE TYPE: inhibition
NUMERIC RESULT: 0.28

Request: For the compound CCc1ccc(Oc2nccc(-c3c(-c4ccc(F)cc4)ncn3C3CCNCC3)n2)cc1 , what inhibition is on record?
Response: 7.29

Request: What measured inhibition goes with C[C@@H](Oc1cc(-n2cnc3ccc(OCC4CCN(C)CC4)cc32)sc1C(N)=O)c1ccccc1Cl ?
Response: 8.9

Request: What value of measured inhibition is listed for COc1cccc(/C=N/Nc2ncnc3c2cnn3-c2cccc(OC)c2)c1 ?
Response: 51.1

Request: Returns the measured inhibition for the input compound. Input: COc1ccc2cc(-c3c(-c4ccncc4)nc(-c4ccc(S(C)(=O)=O)cc4C)n3C)ccc2c1
Response: 6.76

Request: What does the data say about its inhibition? Entry: CS(=O)(=O)CCNCc1cc(-c2cc3c(Nc4ccc(OCc5cccc(F)c5)c(Cl)c4)ncnc3s2)cs1
Response: 1.78

Request: Name the recorded inhibition for Fc1ccc(-c2ncn(CCCN3CCOCC3)c2-c2ccncc2)cc1 .
Response: 1.01

Request: Entry under review: Fc1ccc(-c2ncn(C3CCNCC3)c2-c2ccnc(Oc3ccc(F)c(F)c3)n2)cc1 . Reported inhibition?
Response: 2.53

Request: Given the compound COc1cc(C)c(N(C)C(=O)CN(C)C)cc1Nc1nc(Nc2cccc(F)c2C(N)=O)c2cc[nH]c2n1 , what is its reported inhibition?
Response: -3.33

Request: Quick one: inhibition of COc1ccc2cc(-c3c(-c4ccncc4)nc(-c4ccc([S+](C)[O-])cc4C)n3C)ccc2c1 (stereo unspecified) ?
Response: 14.7

Request: Which value of inhibition has been reported for Fc1ccc(-c2nc3n(c2-c2ccncc2)CCS3)cc1 in the records?
Response: 7.8

Request: I would be grateful if you could share the reported inhibition for O=C1Nc2ccc(I)cc2C1=Cc1cc(Br)c(O)c(Br)c1 .
Response: 5.98

Request: Look up inhibition for this compound: COc1cc2ncn(-c3cc(OCCc4ccccc4)c(C(N)=O)s3)c2cc1OC
Response: 0.1

Request: Name the reported inhibition value associated with the compound NS(=O)(=O)c1ccc(N/N=C2\C(=O)Nc3ccc(-c4cnco4)cc32)cc1
Response: 65.2

Request: Would you kindly share the measured inhibition for NC(=O)c1cc(-c2ccc(F)cc2)cc(-c2ccncc2)c1N ?
Response: 1.12

Request: Please give the measured inhibition for this compound: CN(C)c1ccc2c(c1)/C(=C/Nc1ccc(S(N)(=O)=O)cc1)C(=O)N2
Response: 24.2

Request: Which value of inhibition has been reported for O=C(Nc1ccc(Oc2ccc3[nH]c(NC(=O)c4ccccc4)nc3c2)cc1)Nc1cc(C(F)(F)F)ccc1F in the records?
Response: 7.73

Request: Fill in: inhibition of NS(=O)(=O)c1ccc(Nc2cc(-c3ccc(O)c(F)c3)n[nH]2)cc1 is ___
Response: 38

Request: Param item = Fc1ccc(-c2ncn(C3CCNCC3)c2-c2ccnc(Oc3ccc4c(c3)OCO4)n2)cc1 ; retrieve measured inhibition.
Response: 4.03

Request: Data request, read-out inhibition, for COC(=O)Nc1nc2ccc(Sc3ccc(NC(=O)Nc4cc(C(F)(F)F)ccc4F)cc3)cc2[nH]1
Response: 1.89

Request: Item under review: Fc1ccc(-c2ncn(C3CCNCC3)c2-c2ccnc(Oc3ccc(Oc4ccccc4)cc3)n2)cc1 . Reported inhibition?
Response: 3.65

Request: Need inhibition, item CCC(=O)Nc1ccc(C)c(-c2ccc(C(=O)NCC3CC3)cc2)c1
Response: 2.31
